Origin of values: patent US20230064983A1

- TEST_SYSTEM: Bub1 (Homo sapiens)
- Construct: catalytic domain of human Bub1 (amino acids 704-1085); His6 (N); made in house; host or cells: insect cells (Hi5)
- Sequence (O43683 704-1085): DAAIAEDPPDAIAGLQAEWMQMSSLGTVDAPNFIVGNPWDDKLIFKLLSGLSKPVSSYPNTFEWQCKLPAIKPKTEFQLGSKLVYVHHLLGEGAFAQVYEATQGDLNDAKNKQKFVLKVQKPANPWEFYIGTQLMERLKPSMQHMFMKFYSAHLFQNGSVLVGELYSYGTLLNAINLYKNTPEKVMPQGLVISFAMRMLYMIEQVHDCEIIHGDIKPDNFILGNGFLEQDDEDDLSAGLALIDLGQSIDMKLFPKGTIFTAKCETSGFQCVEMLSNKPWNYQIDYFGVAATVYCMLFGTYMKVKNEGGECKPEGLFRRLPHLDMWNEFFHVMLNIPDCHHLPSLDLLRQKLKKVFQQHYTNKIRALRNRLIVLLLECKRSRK
- TEST_DESCRIPTION: Bub1 high ATP kinase assay (TR-FRET)
- Assay type: biochemical
- PROTOCOL_CONDITIONS: Bub1 high ATP (2 mM) IC50, TR-FRET, 2 mM ATP; Table 3
QUANTITY_KIND: IC50 (µM)

a. C[C@@H]1Cc2[nH]c(-c3ccncc3OC[C@@H]3CCCO3)c(Nc3cccc(F)c3CC(F)F)c2C(=O)N1 [Example 63]
b. Cc1c(Cl)cccc1Nc1c(-c2ccncc2OCC2COCCO2)[nH]c2c1C(=O)NCC2C (single isomer, unassigned) [Example 69]
Compare reported IC50 values for a and b . Which is lower? Reply with the label of the item you choose. b
